Recorded log10(clearance) for the following compounds
assay: PK parameters for representative compounds (i.v. and p.o.); settings: in vivo, iv; i.v. @ 2 mg/kg
Give log10 of clearance, with clearance taken in mL/min/kg.

The cases that follow already have their log10(clearance) on record.
smilesInput	measurementKind	value
O=S(=O)(Nc1ccc(-c2csc(-c3ccnc(Cc4ccccc4)c3)n2)c(Cl)c1)C(F)(F)F	log10(clearance)	0.68
O=S(=O)(Nc1ccc(-c2csc(-c3ccnc(CC4CCCCC4)c3)n2)c(Cl)c1)C(F)(F)F	log10(clearance)	1.74
O=S(=O)(Nc1ccc(-c2csc(-c3ccnc(N4CCCCC4)c3)n2)c(Cl)c1)C(F)(F)F	log10(clearance)	1.89
O=S(=O)(Nc1ccc(-c2csc(-c3cccc4[nH]ccc34)n2)c(Cl)c1)C(F)(F)F	log10(clearance)	1.85
O=S(=O)(Nc1ccc(-c2csc(-c3cccc4ccccc34)n2)c(Cl)c1)C(F)(F)F	log10(clearance)	0.62

INPUT: // lookup log10(clearance) for O=S(=O)(Nc1ccc(-c2csc(-c3cccc(N4CCCCC4)c3)n2)c(Cl)c1)C(F)(F)F
OUTPUT: 0.70

INPUT: // lookup log10(clearance) for O=S(=O)(Nc1ccc(-c2csc(-c3ccc4c(c3)CCO4)n2)c(Cl)c1)C(F)(F)F
OUTPUT: 0.36

INPUT: // lookup log10(clearance) for O=S(=O)(Nc1ccc(-c2csc(-c3ccnc(CCC(F)(F)F)c3)n2)c(Cl)c1)C(F)(F)F
OUTPUT: -0.04
